- target: PDE 3 (cGP-inhibited)
- assay-info: Activity against other Phosphodiesterase enzymes: PDE 3
- assay-setup: read-out: IC50 values PDE3
endpoint-label: IC50 (µM)

> print(dat)
                         compound.structure  endpoint.label  observed.value
1  COc1ccc(C(=O)Nc2c(Cl)cncc2Cl)c2c1oc1ccccc12            IC50            61.8

---

- target: PDE4 enzyme
- assay-info: Inhibition of Phosphodiesterase Enzymes (PDE4), [3H]cAMP hydrolysis
- Type: biochemical
- assay-setup: PDE4 enzyme, 1 μM cAMP and 3H cAMP, 34° C.; read-out: IC50
- Protocol: Inhibition of Phosphodiesterase Enzymes (PDE4) In this assay, PDE4 enzyme converts [^3H] cAMP to the corresponding [^3H] 5′-AMP in proportion to the amount of PDE4 present The [^3H] 5′-AMP then was quantitatively converted to free [^3H] adenosine and phosphate by the action of snake venom 5′-nucleotidase. […] Results were expressed as percent inhibition (IC50) in nM concentrations. The IC50 values were determined from the concentration curves by nonlinear regression analysis. […]
endpoint-label: IC50 (µM)

> print(dat)
                          compound.structure  endpoint.label  observed.value
 1  CCOc1ccc(C(=O)Nc2c(Cl)c[n+]([O-])cc2Cl)c2c1oc1ccccc12            IC50           0.057
 2  O=C(Nc1ccc[n+]([O-])c1)c1ccc(OC(F)F)c2oc3ccccc3c12            IC50           0.147
 3  COc1ccc(C(=O)Nc2c(Cl)cncc2Cl)c2c3ccccc3n(Cc3ccccc3)c12            IC50           0.129
 4  COc1ccc(C(=O)Nc2c(Cl)cncc2Cl)c2c1oc1ccc(Br)cc12            IC50         0.00492
 5  COc1ccc(C(=O)Nc2c(Cl)c[n+]([O-])cc2Cl)c2c1oc1ccc(C(F)(F)F)cc12            IC50         0.00168
 6  COc1ccc(C(=O)Nc2c(Cl)c[n+]([O-])cc2Cl)c2c3cc(Cl)ccc3n(CC3CCCCC3)c12            IC50          0.0301
 7  COc1ccc(C(=O)Nc2ccncc2)c2c1oc1ccc([N+](=O)[O-])cc12            IC50          0.0317
 8     COc1ccc(C(=O)Nc2cccnc2)c2c1oc1ccccc12            IC50           0.026
 9  O=C(Nc1c(Cl)cncc1Cl)c1ccc(OC(F)F)c2oc3ccc(N4CCCC4=O)cc3c12            IC50          0.0215
10  O=C(Nc1ccncc1)c1ccc(OC(F)F)c2oc3ccc(C(F)(F)F)cc3c12            IC50         0.00641
11  COc1ccc(C(=O)Nc2c(Cl)cncc2Cl)c2c3cccc(Cl)c3n(CC3CCCCC3)c12            IC50           0.281
12  O=C(Nc1c(Cl)cncc1Cl)c1ccc(OC(F)F)c2oc3ccc([N+](=O)[O-])cc3c12            IC50            0.01
13  O=C(Nc1ccncc1)c1ccc(OCC2CC2)c2oc3ccccc3c12            IC50          0.0736
14  Nc1ccc2oc3c(OC(F)F)ccc(C(=O)Nc4c(Cl)cncc4Cl)c3c2c1            IC50         0.00447
15  COc1ccc(C(=O)Nc2c(Cl)cncc2Cl)c2c3cc(Cl)ccc3n(CC3CCCCC3)c12            IC50         0.00526
16  COc1ccc(C(=O)Nc2c(Cl)cncc2Cl)c2c1oc1ccccc12            IC50          0.0008
17  COc1ccc(C(=O)Nc2cc[n+]([O-])cc2)c2c1oc1ccccc12            IC50          0.0202
